Recorded values, source patent US20250034151A1.

test: Liver microsomes in vitro stability (mouse); format: in vitro ADME; details: read-out: T1/2/min
Think of 30 min as a floor: if half-life at 1 µM stands on it or above, it is condition met; beneath it, condition not met.

INSERT INTO measurements (molecule, class) VALUES
  ('C=CCn1c(=O)c2cnc(Nc3ccc(N4C[C@@H]5C[C@H]4CN5C)c(C)c3)nc2n1-c1cccc(C(C)(C)O)n1 [Compound 12]', 'condition met'),
  ('C=CCn1c(=O)c2cnc(Nc3ccc(N4CCOC5(CCCN(C)C5)C4)cc3)nc2n1-c1cccc(C(C)(C)O)n1 (stereo not shown) [Compound 46]', 'condition not met'),
  ('C=CCn1c(=O)c2cnc(Nc3ccc(N4CCC(N5CC6CC5CN6C)CC4)cc3)nc2n1-c1cccc(C(C)(C)O)n1 (stereo not shown) [Compound 18]', 'condition met'),
  ('C=CCn1c(=O)c2cnc(Nc3ccc(N4CCN(C5CN6CCC5CC6)CC4)cc3)nc2n1-c1cccc(N=S(C)(C)=O)n1 (stereo not shown) [Compound 11]', 'condition met'),
  ('C=CCn1c(=O)c2cnc(Nc3ccc(N4CC5CC(C4)N5C)cc3)nc2n1-c1cccc(C(C)(C)O)n1 [Compound 27]', 'condition met'),
  ('C=CCn1c(=O)c2cnc(Nc3ccc(N4CC5CCC(C4)N5C)cc3)nc2n1-c1cccc(C(C)(C)O)n1 [Compound 28]', 'condition not met'),
  ('C=CCn1c(=O)c2cnc(Nc3ccc(N4CC5CC(C4)N5C)cc3)nc2n1-c1ccc2c(c1)C(C)(O)CO2 (stereo not shown) [Compound 57]', 'condition met');

====

Each entry below carries its reported pIC50.
target: Wee1 protein (Homo sapiens)
pIC50: −log10 of the molar value.
readout_name: pIC50

INSERT INTO assay_data (compound, readout_name, value_reported) VALUES
  ('C=CCn1c(=O)c2cnc(Nc3ccc(N4CC5CC(C4)N5CC)cc3)nc2n1-c1cccc(C(C)(C)O)n1', 'pIC50', '8.00 to 8.30'),
  ('C=CCn1c(=O)c2cnc(Nc3ccc(N4CC5CC(C4)N5CCF)cc3)nc2n1-c1cccc(C(C)(C)O)n1', 'pIC50', '> 8.30'),
  ('C=CCn1c(=O)c2cnc(Nc3ccc4c(c3)CN(C3CCN(C)CC3)C4=O)nc2n1-c1cccc(N=S(C)(C)=O)n1', 'pIC50', '8.00 to 8.30'),
  ('C=CCn1c(=O)c2cnc(Nc3ccc(N4CC5CC(C4)N5C)cc3)nc2n1-c1ccc2cnn(CC)c2n1 [Compound 61]', 'pIC50', '> 8.30'),
  ('C=CCn1c(=O)c2cnc(Nc3ccc(N4CC5CC(CN(CCF)C5)C4)cc3)nc2n1-c1cccc(C(C)(C)O)n1', 'pIC50', '7.00 to 8.00'),
  ('C=CCn1c(=O)c2cnc(Nc3ccc(C4CC45C(=O)C4CCN5CC4)cc3)nc2n1-c1cccc(N=S(C)(C)=O)n1 (centres unmarked)', 'pIC50', '> 8.30'),
  ('C=CCn1c(=O)c2cnc(Nc3ccc(CC4C(=O)C5CCN4CC5)cc3)nc2n1-c1cccc(N=S(C)(C)=O)n1 (centres unmarked)', 'pIC50', '> 8.30'),
  ('C=CCn1c(=O)c2cnc(Nc3ccc(N4CC5CC(C4)N5C)cc3)nc2n1-c1ccc2ccn(CC)c2n1', 'pIC50', '> 8.30'),
  ('C=CCn1c(=O)c2cnc(Nc3ccc(N4C[C@H]5C[C@@H](C4)N5C)cc3)nc2n1-c1cccc(N=S(C)(C)=O)n1', 'pIC50', '> 8.30'),
  ('C=CCn1c(=O)c2cnc(Nc3ccc(N4CCN(C)CC4)cc3)nc2n1-c1ccc2c(n1)OC(C)(C)CO2', 'pIC50', '7.00 to 8.00'),
  ('C=CCn1c(=O)c2cnc(Nc3ccc4c(c3)C(=O)N(C3CCN(C)CC3)C4)nc2n1-c1cccc(N=S(C)(C)=O)n1', 'pIC50', '7.00 to 8.00'),
  ('C=CCn1c(=O)c2cnc(Nc3ccc(OCC)c(CC4C(=O)C5CCN4CC5)c3)nc2n1-c1cccc(N=S(C)(C)=O)n1 (centres unmarked)', 'pIC50', '> 8.30'),
  ('C=CCn1c(=O)c2cnc(Nc3ccc([C@@H]4C[C@]45C(=O)C4CCN5CC4)cc3)nc2n1-c1cccc(N=S(C)(C)=O)n1 [Compound 47b]', 'pIC50', '7.00 to 8.00'),
  ('C=CCn1c(=O)c2cnc(Nc3ccc(N(C)[C@@H]4CN5CCC4CC5)cc3)nc2n1-c1cccc(C(C)(C)O)n1', 'pIC50', '> 8.30');

====

Each entry below carries its reported Cmax.
experiment: Pharmacokinetics on single dose in mice (intravenous and oral); format: in vivo, ICR mice; settings: male, ICR, mouse, plasma, Intravenous, 1 mg/kg
readout_name: Cmax (ng/mL)

INSERT INTO results (line_notation, readout_name, value_reported) VALUES
  ('C=CCn1c(=O)c2cnc(Nc3ccc(N4CCN(C)CC4)cc3)nc2n1-c1cccc(C(C)(C)O)n1', 'Cmax', 250),
  ('C=CCn1c(=O)c2cnc(Nc3ccc(N4CC5CC(C4)N5C)cc3)nc2n1-c1cccc(C(C)(C)O)n1', 'Cmax', 170);

====

pIC50: −log10 of the molar value.
What follows is a record of pIC50 for Wee1 protein (Homo sapiens).
readout_name: pIC50

INSERT INTO assay_data (compound, readout_name, value_reported) VALUES
  ('C=CCn1c(=O)c2cnc(Nc3ccc(N4C[C@@H]5C[C@H]4CN5C(C)C)cc3)nc2n1-c1cccc(C(C)(C)O)n1 [Compound 41]', 'pIC50', '7.00 to 8.00'),
  ('C=CCn1c(=O)c2cnc(Nc3ccc([C@H]4C[C@@]45C(=O)C4CCN5CC4)cc3)nc2n1-c1cccc(N=S(C)(C)=O)n1 [Compound 47a]', 'pIC50', '7.00 to 8.00'),
  ('C=CCn1c(=O)c2cnc(Nc3ccc(N4CC5CC(C4)N5C)cc3)nc2n1-c1ccc2oc(=O)n(CC)c2c1 [Compound 54]', 'pIC50', '8.00 to 8.30');

====

Each entry below carries its reported half-life.
test: Pharmacokinetics on single dose in mice (intravenous and oral); format: in vivo, ICR mice; conditions: male, ICR, mouse, plasma, Intravenous, 1 mg/kg
readout_name: half-life (min)

INSERT INTO results (line_notation, readout_name, value_reported) VALUES
  ('C=CCn1c(=O)c2cnc(Nc3ccc(N4CC5CC(C4)N5C)cc3)nc2n1-c1cccc(C(C)(C)O)n1', 'half-life', 46.8),
  ('C=CCn1c(=O)c2cnc(Nc3ccc(N4CCN(C)CC4)cc3)nc2n1-c1cccc(C(C)(C)O)n1', 'half-life', 30);

====

Target: CYP1A2 (Homo sapiens)
Sequence (P05177 1-516): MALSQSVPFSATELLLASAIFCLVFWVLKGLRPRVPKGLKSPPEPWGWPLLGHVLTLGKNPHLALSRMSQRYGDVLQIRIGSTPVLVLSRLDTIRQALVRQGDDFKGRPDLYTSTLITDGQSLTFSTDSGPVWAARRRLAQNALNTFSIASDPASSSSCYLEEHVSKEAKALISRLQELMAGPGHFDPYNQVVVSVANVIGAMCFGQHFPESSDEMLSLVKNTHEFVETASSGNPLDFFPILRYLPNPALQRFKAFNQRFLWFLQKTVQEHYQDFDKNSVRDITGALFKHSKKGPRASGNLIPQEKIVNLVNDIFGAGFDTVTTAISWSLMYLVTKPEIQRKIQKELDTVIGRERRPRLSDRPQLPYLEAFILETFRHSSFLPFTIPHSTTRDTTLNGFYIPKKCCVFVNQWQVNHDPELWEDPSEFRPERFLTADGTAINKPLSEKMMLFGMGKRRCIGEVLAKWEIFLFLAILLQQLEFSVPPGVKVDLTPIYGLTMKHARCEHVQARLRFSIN
Experiment: in vitro
Conditions: CYP1A2 enzyme, pH 7.4, probe EOMCC (0.01 mM)
readout_name: inhibition at 30 min, 10 µM (%)

INSERT INTO assay_data (compound, value_reported) VALUES
  ('C=CCn1c(=O)c2cnc(Nc3ccc(N4CCN(C)CC4)cc3)nc2n1-c1cccc(C(C)(C)O)n1 [AZD1775]', 17.5);

====

biological target: Wee1 protein (Homo sapiens, UniProt P30291)
Sequence (P30291 whole entry): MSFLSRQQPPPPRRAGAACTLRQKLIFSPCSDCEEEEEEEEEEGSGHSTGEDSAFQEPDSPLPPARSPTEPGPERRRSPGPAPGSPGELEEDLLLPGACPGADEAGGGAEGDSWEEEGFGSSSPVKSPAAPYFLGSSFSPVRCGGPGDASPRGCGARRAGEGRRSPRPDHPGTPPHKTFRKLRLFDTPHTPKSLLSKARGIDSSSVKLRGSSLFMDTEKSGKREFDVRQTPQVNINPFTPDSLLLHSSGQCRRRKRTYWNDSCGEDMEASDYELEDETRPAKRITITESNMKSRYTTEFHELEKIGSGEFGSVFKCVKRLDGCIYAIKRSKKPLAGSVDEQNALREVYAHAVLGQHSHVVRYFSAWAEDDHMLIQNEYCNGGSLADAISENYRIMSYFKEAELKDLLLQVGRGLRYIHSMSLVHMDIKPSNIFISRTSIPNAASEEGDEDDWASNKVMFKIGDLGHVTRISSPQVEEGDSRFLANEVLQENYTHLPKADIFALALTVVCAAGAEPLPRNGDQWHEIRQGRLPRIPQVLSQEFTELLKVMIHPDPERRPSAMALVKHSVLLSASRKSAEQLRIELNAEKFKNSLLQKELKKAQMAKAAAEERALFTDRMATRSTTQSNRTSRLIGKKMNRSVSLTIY
pIC50: −log10 of the molar value.
Each entry below carries its reported pIC50.
readout_name: pIC50

INSERT INTO results (molecule, value_reported) VALUES
  ('C=CCn1c(=O)c2cnc(Nc3ccc(N4CC5CC(C4)N5C4CCC4)cc3)nc2n1-c1cccc(C(C)(C)O)n1 [Compound 49]', '> 8.30'),
  ('C=CCn1c(=O)c2cnc(Nc3ccc(N4CC5CC(C4)N5C4CN(C)C4)cc3)nc2n1-c1cccc(C(C)(C)O)n1 [Compound 63]', '5.00 to 6.00'),
  ('C=CCN1C2CC1CN(c1ccc(Nc3ncc4c(=O)n(CC=C)n(-c5cccc(C(C)(C)O)n5)c4n3)cc1)C2 [Compound 64]', '7.00 to 8.00'),
  ('C=CCn1c(=O)c2cnc(Nc3ccc(N4CC5CC(C4)N5C(=O)OC)cc3)nc2n1-c1cccc(C(C)(C)O)n1 [Compound 69]', '7.00 to 8.00'),
  ('C=CCn1c(=O)c2cnc(Nc3ccc(N4CCN(C)c5ccccc54)cc3)nc2n1-c1cccc(C(C)(C)O)n1 [Compound 50]', '6.00 to 7.00'),
  ('C=CCn1c(=O)c2cnc(Nc3ccc(N4CC5CC(C4)N5C(C)C)cc3)nc2n1-c1cccc(C(C)(C)O)n1 [Compound 42]', '7.00 to 8.00'),
  ('C=CCn1c(=O)c2cnc(Nc3cccc(CC4C(=O)C5CCN4CC5)c3)nc2n1-c1cccc(N=S(C)(C)=O)n1 (stereo not shown) [Compound 10]', '> 8.30');
